conditions: rat, in vivo, 10 mg/kg
measured quantity: Body weight Day 2 (g)
Number in g, nothing else.

What the record says about NC[C@H]1O[C@H](O[C@H]2[C@H](O)[C@@H](O[C@H]3O[C@H](CO)[C@@H](O)[C@H](N)[C@H]3O)[C@H](N)C[C@@H]2N)[C@H](N)C[C@@H]1O : Body weight Day 2 is 256

###

settings: rat, in vivo, 10 mg/kg
measured quantity: Body weight Day 4 (g)
Number in g, nothing else.

What the record says about NC[C@H]1O[C@H](O[C@H]2[C@H](O)[C@@H](O[C@H]3O[C@H](CO)[C@@H](O)[C@H](N)[C@H]3O)[C@H](N)C[C@@H]2N)[C@H](N)C[C@@H]1O : Body weight Day 4 is 277

These entries and their values trace back to patent US20120208781A1.
